Experiment: chemical genetic growth profiling, strain panel (AID 1159580);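 further: tested at 20 µM; growth read once vehicle control cultures reached saturation at 30 °C; 1 = growth at the plate median or of vehicle wells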
Details: S. cerevisiae deletion strains, growth OD, locus YLR262C, strain YPT6 (second series)
The whole screen tested about 5,500 compounds, of which about 2,000 (36%) were called active. Roughly 18% stayed inconclusive and do not appear here. No stated cut-off is given here; in the data, active means normalized growth mostly below about 0.91 (no sharp cut-off); inconclusive means no clear call, values can overlap the other calls; inactive means mostly above about 0.92. The list shows a part of the results.
Your reply should match one of these outcome classes. active, inactive

Challenge: Assay outcome for O=C(O)c1ccccc1C(=O)Nc1ccc(S(=O)(=O)Nc2nccs2)cc1 : what was it?
Response given: inactive

Challenge: Assay outcome for NNCCc1ccccc1 : what was it?
Response given: inactive

Challenge: Assay outcome for CC(CN(C)C)CN1c2ccccc2CCc2ccccc21 (configuration not stated) : what was it?
Response given: inactive

Challenge: Assay outcome for N[C@@H]1[C@@H](O)[C@H](O)[C@@H](CO)O[C@H]1O : what was it?
Response given: inactive

Challenge: Assay outcome for O=c1cc(-c2ccccc2)oc2cc(O)c(O)cc12 : what was it?
Response given: active

More entries:
Challenge: Assay outcome for CN(C)CCC(c1ccc(Br)cc1)c1ccccn1 (configuration not stated) : what was it?
Response given: inactive

Challenge: Assay outcome for CCN(CC)C(C)CN1c2ccccc2Sc2ccccc21 (configuration not stated) : what was it?
Response given: inactive

Challenge: Assay outcome for CN(CCC(N)CC(=O)N[C@H]1C=CC(n2ccc(N)nc2=O)O[C@@H]1C(=O)O)C(=N)N (some centres not stated) : what was it?
Response given: inactive

Challenge: Assay outcome for CCN(CC)CCOC(=O)C(c1ccccc1)c1ccccc1 : what was it?
Response given: inactive

Challenge: Assay outcome for CCCC(C(=O)OCCN(CC)CC)(c1ccccc1)c1ccccc1 : what was it?
Response given: inactive

Challenge: Assay outcome for CC(CN1c2ccccc2Sc2ccccc21)N(C)C (configuration not stated) : what was it?
Response given: inactive

* * *

Assay: chemical genetic growth profiling, strain panel (AID 1159580);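 further: tested at 20 µM; growth read once vehicle control cultures reached saturation at 30 °C; 1 = growth at the plate median or of vehicle wells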
Details: S. cerevisiae deletion strains, growth OD, locus YPR167C, strain met16, stronger effect = lower value
The whole screen tested about 5,500 compounds, of which about 2,000 (36%) were called active. About 18% were inconclusive and are not listed. The list shows a part of the results.
Examples of compounds with documented normalized growth follow.

Examples with answers:
Challenge: Give the measured normalized growth of CNCCCN1c2ccccc2CCc2ccccc21 .
Response given: 1.01 (inactive)

Challenge: Give the measured normalized growth of CCCC(C(=O)OCCN(CC)CC)(c1ccccc1)c1ccccc1 .
Response given: 0.993 (inactive)

Challenge: Give the measured normalized growth of CC(CN1c2ccccc2Sc2cccnc21)N(C)C (stereo not given) .
Response given: 1 (inactive)

Challenge: Give the measured normalized growth of CCN(CC)CCOC(=O)C(c1ccccc1)c1ccccc1 .
Response given: 0.987 (inactive)

More entries:
Challenge: Give the measured normalized growth of C[C@@H]1O[C@@H](O[C@H]2C[C@@H](O)[C@]3(CO)C4C(CC[C@]3(O)C2)[C@@]2(O)CC[C@H](C3=CC(=O)OC3)[C@@]2(C)C[C@H]4O)[C@H](O)[C@H](O)[C@H]1O (stereo not given in full) .
Response given: 0.99 (inactive)

* * *

Assay: chemical genetic growth profiling, strain panel (AID 1159580);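 further: tested at 20 µM; growth read once vehicle control cultures reached saturation at 30 °C; 1 = growth at the plate median or of vehicle wells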
Settings: S. cerevisiae deletion strains, growth OD, locus YMR058W, strain fet3, stronger effect = lower value
In all, about 5,500 compounds went through this assay and about 2,000 (36%) were called active. Another 18% or so got no clear call; they are omitted. Some of the results follow.
outcomeMeasure: normalized growth
Please state the value as a number alone, without comment.

Examples with answers:
Challenge: Give the measured normalized growth of CN(C)C(=O)Nc1ccc(Cl)c(Cl)c1 .
Response given: 0.992

Challenge: Give the measured normalized growth of CC1=C2[C@H]3OC(=O)[C@@H](C)[C@@H]3CC[C@@]2(C)C=CC1=O .
Response given: 0.977

Challenge: Give the measured normalized growth of CCC(=O)Nc1ccc(Cl)c(Cl)c1 .
Response given: 0.993

Challenge: Give the measured normalized growth of C=C1[C@H]2CC[C@@]3(C)[C@H](c4ccoc4)OC(=O)C[C@]13O[C@H]1C[C@H](O)C(C)(C)[C@H](CC(=O)OC)[C@]12C .
Response given: 1.05

Challenge: Give the measured normalized growth of CN1CCN(C2=Nc3ccccc3Oc3ccc(Cl)cc32)CC1 .
Response given: 0.957

Challenge: Give the measured normalized growth of COc1cc(OC)c(OC)cc1C=O .
Response given: 1

Challenge: Give the measured normalized growth of Nc1cc(C(Cl)=C(Cl)Cl)c(S(N)(=O)=O)cc1S(N)(=O)=O .
Response given: 1.02

Challenge: Give the measured normalized growth of CC1(C)C(O)CC(O)C2(C)C1CC(O)C1(C)C2CCC2(C)C(c3ccoc3)OC(=O)C3OC321 (stereo unspecified) .
Response given: 0.998

More entries:
Challenge: Give the measured normalized growth of C=C1C2CC[C@@]3(C)[C@H](c4ccoc4)OC(=O)C[C@]13O[C@H]1CC(=O)C(C)(C)C(CC(=O)OC)[C@@]21C (stereo partly specified) .
Response given: 0.983

Challenge: Give the measured normalized growth of COc1ccc(C(=O)N2CCCC2=O)cc1 .
Response given: 0.971

Challenge: Give the measured normalized growth of Nc1ccncc1 .
Response given: 1
